# TEST CONTEXT: normal mice, oral gavage, 3mg/kg; Kidney; 12h
t means recorded Drug concentration, time course is 300 or above; f means it is below 300.

- COMPOUND: "CC1(C)S[C@@H]2[C@H](NC(=O)[C@H](N)c3ccc(O)cc3)C(=O)N2[C@H]1C(=O)O"
  CLASS ASSIGNMENT: "t"
- COMPOUND: "CC1=C(C(=O)O)N2C(=O)[C@@H](NC(=O)[C@H](N)c3ccccc3)[C@H]2SC1"
  CLASS ASSIGNMENT: "t"
- COMPOUND: "COc1ccc2c(c1)c(CC(=O)O)c(C)n2C(=O)c1ccc(Cl)cc1"
  CLASS ASSIGNMENT: "t"
- COMPOUND: "CC#CCn1c(N2CCC[C@@H](N)C2)nc2c1c(=O)n(Cc1nc(C)c3ccccc3n1)c(=O)n2C"
  CLASS ASSIGNMENT: "t"
- COMPOUND: "OC[C@H]1O[C@@H](c2ccc(Cl)c(Cc3ccc(O[C@H]4CCOC4)cc3)c2)[C@H](O)[C@@H](O)[C@@H]1O"
  CLASS ASSIGNMENT: "f"
- COMPOUND: "N#C[C@@H]1CCCN1C(=O)CNC12CC3CC(CC(O)(C3)C1)C2"
  CLASS ASSIGNMENT: "f"
- COMPOUND: "OC[C@H]1O[C@@H](c2ccc(F)c(Cc3cc4ccccc4s3)c2)[C@H](O)[C@@H](O)[C@@H]1O"
  CLASS ASSIGNMENT: "t"
- COMPOUND: "CC(C)Cc1ccc(C(C)C(=O)O)cc1 (centres unmarked)"
  CLASS ASSIGNMENT: "t"
- COMPOUND: "Cn1c(=O)cc(N2CCC[C@@H](N)C2)n(Cc2ccccc2C#N)c1=O"
  CLASS ASSIGNMENT: "f"
- COMPOUND: "Cc1ccc(-c2cc(C(F)(F)F)nn2-c2ccc(S(N)(=O)=O)cc2)cc1"
  CLASS ASSIGNMENT: "t"
